This collection of values is drawn from paper PMC6540747.

protocol description: Intrinsic metabolic clearance of the liver MPS on the multi-MPS platform
Assay type: in vitro ADME, human
recorded conditions: human
property name: hepatocyte CLint at 40 μM
Answers without a unit are incomplete; give the number and then its unit.

Sample `O=C(O)Cc1ccccc1Nc1c(Cl)cccc1Cl` — what was its hepatocyte CLint at 40 μM?
17 µL/min/1e6 cells
